# maps each entry to its WC ELISA (fold over background)
measured_on: T1, human cMet expressed on 3T3 cells (human, UniProt P08581 25-1390)
T1 construct: whole, on cells; cells fixed with glutaraldehyde; also called cell surface-expressed human cMet; 3T3 cells that over-express human cMet
measurement_description: whole cell phage ELISA, 3T3 human cMet vs 3T3
measured_property: WC ELISA (fold over background)

>>> recorded_value("AGETKCSGPPYFYCWMEGT [545-E04 peptide-displaying phage (SEQ ID NO: 093)]")
"1.23 fold"
>>> recorded_value("AQLFQYLWHDDPQGAFFQLSMW [98-F05 peptide-displaying phage (SEQ ID NO: 483)]")
"1.23 fold"
>>> recorded_value("AQDPGFSKHSMGHGYPSKMNWG [115-G02 peptide-displaying phage (SEQ ID NO: 471)]")
"1.27 fold"
>>> recorded_value("AGPLFCFEWPSLCHWGGT [448-H02 peptide-displaying phage (SEQ ID NO: 033)]")
"1.43 fold"
>>> recorded_value("AGKYMCEGFEWFCEMWGT [442-E08 peptide-displaying phage (SEQ ID NO: 037)]")
"1.43 fold"
>>> recorded_value("AQWGAVDNDWYDWEMEQIWMFE [527-E08 peptide-displaying phage (SEQ ID NO: 491)]")
"1.23 fold"
>>> recorded_value("AQREVEEPYWYLDFLSSWRMHE [524-E09 peptide-displaying phage (SEQ ID NO: 451)]")
"1.33 fold"
>>> recorded_value("AGSTDCRGHPTFECWGWGT [549-F06 peptide-displaying phage (SEQ ID NO: 086)]")
"1.3 fold"
>>> recorded_value("AQVGSPMLPSWFSFEANWSS [95-A11 peptide-displaying phage (SEQ ID NO: 456)]")
"1.3 fold"
>>> recorded_value("GSFWNCTTDLGAMSDCGFFAP [445-E07 peptide-displaying phage (SEQ ID NO: 383)]")
"1.37 fold"
>>> recorded_value("AGYSVCKGYPSFECAFFGT [336-D07 peptide-displaying phage (SEQ ID NO: 075)]")
"1.33 fold"
>>> recorded_value("AQNAVVPPPMLWSIYWDYGREG [94-H04 peptide-displaying phage (SEQ ID NO: 457)]")
"1.37 fold"
>>> recorded_value("AGVLQCIGFEWFCDIWGT [423-C11 peptide-displaying phage (SEQ ID NO: 022)]")
"1.4 fold"
>>> recorded_value("AGSFACKGPPTFACVEFGT [330-B07 peptide-displaying phage (SEQ ID NO: 053)]")
"1.27 fold"
>>> recorded_value("AQHMDPAEWDWFIRIYSPVVNP [149-E06 peptide-displaying phage (SEQ ID NO: 487)]")
"1.8 fold"
